Target: T1, 2Ig-B7H3 without Fc fusion (human, UniProt Q5ZPR3-2 29-245, limits assumed)
T1 construct: also called 2IgB7H3 (R&D)
T1 sequence (looked up): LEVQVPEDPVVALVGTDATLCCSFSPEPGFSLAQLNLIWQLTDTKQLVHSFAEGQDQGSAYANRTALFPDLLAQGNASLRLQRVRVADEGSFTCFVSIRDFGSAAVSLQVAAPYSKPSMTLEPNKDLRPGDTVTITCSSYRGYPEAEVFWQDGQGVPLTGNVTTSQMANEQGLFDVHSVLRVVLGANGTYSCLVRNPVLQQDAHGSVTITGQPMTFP
Assay: SPR, IgG on 2Ig-B7-H3 without Fc fusion
Method: In brief, B7H3 antigen (either 2Ig-B7H3, 4Ig-B7H3, 2Ig-B7H3-mFc, 4Ig-B7H3-mFc), was directly immobilized onto the CM5 sensor chip via […]. Reference surface was set up for nonspecific binding and refractive index changes. […] The association and dissociation phase data were fitted simultaneously to a 1:1 model by using BIAevaluation 3.2. All the experiments were done at 25° C.
Catalogue of kon values
Please respond with the number in M⁻¹ s⁻¹ and leave the unit unwritten.

BINDER	ASSAY ENDPOINT	UNITS LABEL	READING
ch8H9 6.1 IgG (ch8H9 + 6 affinity maturation mutations) (antibody, V domains shown) VH: QVQLQQSGAELVKPGASVKLSCKTSGYTFTNYDINWVRQRPGQGLEWIGWIFPGDDSTQYNEKFKGKATLTTDTSSSTAYMQLSRLTSEDSAVYFCARQTTGTWFAYWGQGTLVTVSA VL: DIVMTQSPATLSVTPGDRVTLSCRASQSISDYLYWYQQKSHESPRLLIKYASQSISGIPSRFSGSGSGSDFTLSINSVEPEDVGVYYCQNGHSFPLTFGAGTKLELKR	kon	M⁻¹ s⁻¹	68900
mouse/human chimeric 8H9 (ch8H9) IgG1 (antibody, V domains shown) VH: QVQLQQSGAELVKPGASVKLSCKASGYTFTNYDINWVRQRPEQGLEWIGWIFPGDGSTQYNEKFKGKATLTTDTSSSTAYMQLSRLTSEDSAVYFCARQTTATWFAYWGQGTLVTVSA VL: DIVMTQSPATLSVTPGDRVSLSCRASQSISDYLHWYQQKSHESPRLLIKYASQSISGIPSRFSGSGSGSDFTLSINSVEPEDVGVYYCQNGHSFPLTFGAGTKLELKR	kon	M⁻¹ s⁻¹	32100
hu8H9 H3L3 IgG1 (antibody, V domains shown) VH: QVQLVQSGAEVVKPGASVKLSCKASGYTFTNYDINWVRQRPEQGLEWIGWIFPGDGSTQYNEKFKGKATLTTDTSTSTAYMELSSLRSEDTAVYFCARQTTATWFAYWGQGTLVTVSS VL: EIVMTQSPATLSVSPGERVSLSCRASQSISDYLHWYQQKSHESPRLLIKYASQSISGIPARFSGSGSGSEFTLTINSVEPEDVGVYYCQNGHSFPLTFGQGTKLELKR	kon	M⁻¹ s⁻¹	13500

Quick one: give measured kon for murine 8H9 (m8H9) IgG1 monoclonal antibody (antibody, V domains shown, 131I-labelled in the LAN-1 immunoreactivity assay; the label is not carried by the letters., also called MAb 8H9) VH: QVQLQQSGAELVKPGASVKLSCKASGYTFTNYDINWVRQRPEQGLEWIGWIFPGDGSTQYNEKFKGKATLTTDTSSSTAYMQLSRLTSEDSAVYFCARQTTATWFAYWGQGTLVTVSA VL: DIVMTQSPATLSVTPGDRVSLSCRASQSISDYLHWYQQKSHESPRLLIKYASQSISGIPSRFSGSGSGSDFTLSINSVEPEDVGVYYCQNGHSFPLTFGAGTKLELK
27800

Hello, the source for this data is patent US20170240637A1, in case you need it.
